Tested on: CAL-12T
Test: relative viability (nuclei count vs DMSO), 5 days (fraction); higher = more cells survive
Conditions: first compound 0.1 µM
readout: relative viability

Field: example entries. Status: answers known.
molecule: O=c1cc(N2CCOCC2)oc2c(-c3cccc4c3sc3ccccc34)cccc12 + Cc1nc(Nc2ncc(C(=O)Nc3c(C)cccc3Cl)s2)cc(N2CCN(CCO)CC2)n1 [Dasatinib] (partner 0.075 µM)
readout: relative viability
assay.result: 0.49

molecule: CCN(CC)CCCCNc1ncc2cc(-c3cc(OC)cc(OC)c3)c(NC(=O)NC(C)(C)C)nc2n1 + O=C(c1cc(Cc2n[nH]c(=O)c3ccccc23)ccc1F)N1CCN(C(=O)C2CC2)CC1 [Olaparib] (partner 8 µM)
readout: relative viability
assay.result: 0.829

molecule: CCN(CC)CCCCNc1ncc2cc(-c3cc(OC)cc(OC)c3)c(NC(=O)NC(C)(C)C)nc2n1 + CS(=O)(=O)CCNCc1ccc(-c2ccc3ncnc(Nc4ccc(OCc5cccc(F)c5)c(Cl)c4)c3c2)o1 [Lapatinib] (partner 2 µM)
readout: relative viability
assay.result: 0.703

Items follow; give relative viability for each.
1. O=c1cc(N2CCOCC2)oc2c(-c3cccc4c3sc3ccccc34)cccc12 + Cc1nc(NC(=O)N2CCC[C@H]2C(N)=O)sc1-c1ccnc(C(C)(C)C(F)(F)F)c1 [Alpelisib] (partner 2 µM)
2. O=c1cc(N2CCOCC2)oc2c(-c3cccc4c3sc3ccccc34)cccc12 + CS(=O)(=O)CCNCc1ccc(-c2ccc3ncnc(Nc4ccc(OCc5cccc(F)c5)c(Cl)c4)c3c2)o1 [Lapatinib] (partner 2 µM)
3. O=c1cc(N2CCOCC2)oc2c(-c3cccc4c3sc3ccccc34)cccc12 + C[C@]1(O)C[C@@H](c2nc(-c3ccc4ccc(-c5ccccc5)nc4c3)c3c(N)nccn32)C1 [Linsitinib] (partner 1 µM)

1. 1.13
2. 0.662
3. 0.842
